# Test system: Acinetobacter sp. (H064200250)
# ASSAY TEXT: Preliminary MBC without and with sub-inhibitory polymyxin B (Example 4)
# Format: cell-based
# ASSAY CONTEXT: Acinetobacter, read-out: MBC +[…] PB, Acinetobacter spp. H064200250; +[…] polymyxin B; preliminary MBC; 1st experiment
Consider the following compounds and their measured MBC readings.
PROPERTY NAME: MBC (µg/mL)

[
  {
    "COMPOUND": "C[C@@H](O)[C@H]1C(=O)N2C(C(=O)O)=C(S[C@@H]3CN[C@H](C(=O)N(C)C)C3)[C@H](C)[C@H]12 [Meropenem]",
    "OPERATOR SYMBOL": "=",
    "RESULT VALUE": 1
  },
  {
    "COMPOUND": "Cc1c(-c2ccc(CN)cc2)c(F)cn2c(=O)c(C(=O)O)cc(C3CC3)c12 [Compound 6]",
    "OPERATOR SYMBOL": "=",
    "RESULT VALUE": 4
  },
  {
    "COMPOUND": "Cc1c(-c2ccc(N)c(F)c2)c(F)cn2c(=O)c(C(=O)O)cc(C3CC3)c12 [Compound 17]",
    "OPERATOR SYMBOL": "=",
    "RESULT VALUE": 0.06
  },
  {
    "COMPOUND": "Cc1c(-c2ccc(N)cc2)ccn2c(=O)c(C(=O)O)cc(C3CC3)c12 [Compound 8]",
    "OPERATOR SYMBOL": "=",
    "RESULT VALUE": 0.5
  },
  {
    "COMPOUND": "NCC[C@H](O)C(=O)N[C@@H]1C[C@H](N)[C@@H](O[C@H]2O[C@H](CN)[C@@H](O)[C@H](O)[C@H]2O)[C@H](O)[C@H]1O[C@H]1O[C@H](CO)[C@@H](O)[C@H](N)[C@H]1O [Amikacin, reference compound]",
    "OPERATOR SYMBOL": "=",
    "RESULT VALUE": 64
  },
  {
    "COMPOUND": "Cc1c(-c2ccc(N)c(F)c2)ccn2c(=O)c(C(=O)O)cc(C3CC3)c12 [Compound 1]",
    "OPERATOR SYMBOL": "=",
    "RESULT VALUE": 0.25
  },
  {
    "COMPOUND": "Cc1c(-c2ccc(CN)c(F)c2)ccn2c(=O)c(C(=O)O)cc(C3CC3)c12 [Compound 4]",
    "OPERATOR SYMBOL": "=",
    "RESULT VALUE": 8
  },
  {
    "COMPOUND": "Cc1c(-c2ccc(N)cc2)c(F)cn2c(=O)c(C(=O)O)cc(C3CC3)c12 [Compound 7]",
    "OPERATOR SYMBOL": "=",
    "RESULT VALUE": 0.25
  },
  {
    "COMPOUND": "Cc1c(-c2cc(Cl)c(N)c(Cl)c2)ccn2c(=O)c(C(=O)O)cc(C3CC3)c12 [Compound 3]",
    "OPERATOR SYMBOL": "=",
    "RESULT VALUE": 0.5
  },
  {
    "COMPOUND": "Cc1c(-c2ccc(CN)cc2)ccn2c(=O)c(C(=O)O)cc(C3CC3)c12 [Compound 5]",
    "OPERATOR SYMBOL": "=",
    "RESULT VALUE": 1
  },
  {
    "COMPOUND": "Cc1c(-c2cc(F)c(N)cc2F)ccn2c(=O)c(C(=O)O)cc(C3CC3)c12 [Compound 2]",
    "OPERATOR SYMBOL": "≤",
    "RESULT VALUE": 0.03
  }
]

The measured values listed here are drawn from patent US20190105367A1.
